# measured_target: CDK1_CycB1 (Homo sapiens)
# Construct: purchased Reaction Biology
# Sequence (P06493 whole entry): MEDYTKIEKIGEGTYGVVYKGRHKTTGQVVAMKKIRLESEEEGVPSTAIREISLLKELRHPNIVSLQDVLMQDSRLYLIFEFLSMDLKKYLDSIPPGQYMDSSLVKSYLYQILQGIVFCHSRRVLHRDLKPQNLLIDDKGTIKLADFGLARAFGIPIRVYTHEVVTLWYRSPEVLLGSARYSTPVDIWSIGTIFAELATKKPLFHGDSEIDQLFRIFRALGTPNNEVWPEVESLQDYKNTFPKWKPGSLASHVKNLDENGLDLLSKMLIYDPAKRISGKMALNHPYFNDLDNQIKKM
# Sequence (P14635 whole entry partner): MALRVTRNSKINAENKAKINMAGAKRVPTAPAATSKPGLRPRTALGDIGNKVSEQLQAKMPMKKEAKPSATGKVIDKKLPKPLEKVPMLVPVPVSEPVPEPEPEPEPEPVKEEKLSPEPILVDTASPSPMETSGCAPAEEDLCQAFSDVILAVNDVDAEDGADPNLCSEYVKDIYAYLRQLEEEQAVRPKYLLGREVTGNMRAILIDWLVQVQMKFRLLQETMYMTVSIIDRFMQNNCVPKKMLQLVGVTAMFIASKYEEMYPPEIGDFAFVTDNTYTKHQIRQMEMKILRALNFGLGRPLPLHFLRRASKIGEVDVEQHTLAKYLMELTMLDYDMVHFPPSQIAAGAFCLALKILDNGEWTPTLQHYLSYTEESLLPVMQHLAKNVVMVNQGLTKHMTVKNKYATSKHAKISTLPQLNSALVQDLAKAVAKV
# assay_details: Radiometric protein kinase assay (33PanQinase), CDK1_CycB1
# Assay type: biochemical
# measurement_conditions: slope of the IC50 fit
Would you mind labelling by Hill Slope? At or over -0.3 is true (1), under is false (0).

Item Cc1c(Br)c(Br)c2c3c1nc(N1CCNCC1)n3CCC2.Cl [SEL120-34A, reference compound] with Hill Slope of -0.3 or above?
false (0)

Item Cc1n[nH]c2ncc(C(=O)N3CCC[C@H]3c3ccc(Cl)cc3)cc12 with Hill Slope of -0.3 or above?
false (0)

Item Cn1cc(-c2ccc(-c3cncc(Cl)c3N3CCC4(CCNC4=O)CC3)cc2)cn1 with Hill Slope of -0.3 or above?
false (0)

Item Cn1ncc2cc(-c3cnc(N)c(Cl)c3N3CCC4(CCNC4=O)CC3)ccc21 with Hill Slope of -0.3 or above?
false (0)

Item CN1CCN(C(=O)c2ccc3cc(CCNc4ncnc5ccc(C#N)cc45)ccc3c2)CC1 [Senexin B, reference compound] with Hill Slope of -0.3 or above?
true (1)
